The measurements presented in this section are drawn from ChEMBL document CHEMBL3108672.

- target system: UniProt:O94759
- Sequence (O94759 whole entry): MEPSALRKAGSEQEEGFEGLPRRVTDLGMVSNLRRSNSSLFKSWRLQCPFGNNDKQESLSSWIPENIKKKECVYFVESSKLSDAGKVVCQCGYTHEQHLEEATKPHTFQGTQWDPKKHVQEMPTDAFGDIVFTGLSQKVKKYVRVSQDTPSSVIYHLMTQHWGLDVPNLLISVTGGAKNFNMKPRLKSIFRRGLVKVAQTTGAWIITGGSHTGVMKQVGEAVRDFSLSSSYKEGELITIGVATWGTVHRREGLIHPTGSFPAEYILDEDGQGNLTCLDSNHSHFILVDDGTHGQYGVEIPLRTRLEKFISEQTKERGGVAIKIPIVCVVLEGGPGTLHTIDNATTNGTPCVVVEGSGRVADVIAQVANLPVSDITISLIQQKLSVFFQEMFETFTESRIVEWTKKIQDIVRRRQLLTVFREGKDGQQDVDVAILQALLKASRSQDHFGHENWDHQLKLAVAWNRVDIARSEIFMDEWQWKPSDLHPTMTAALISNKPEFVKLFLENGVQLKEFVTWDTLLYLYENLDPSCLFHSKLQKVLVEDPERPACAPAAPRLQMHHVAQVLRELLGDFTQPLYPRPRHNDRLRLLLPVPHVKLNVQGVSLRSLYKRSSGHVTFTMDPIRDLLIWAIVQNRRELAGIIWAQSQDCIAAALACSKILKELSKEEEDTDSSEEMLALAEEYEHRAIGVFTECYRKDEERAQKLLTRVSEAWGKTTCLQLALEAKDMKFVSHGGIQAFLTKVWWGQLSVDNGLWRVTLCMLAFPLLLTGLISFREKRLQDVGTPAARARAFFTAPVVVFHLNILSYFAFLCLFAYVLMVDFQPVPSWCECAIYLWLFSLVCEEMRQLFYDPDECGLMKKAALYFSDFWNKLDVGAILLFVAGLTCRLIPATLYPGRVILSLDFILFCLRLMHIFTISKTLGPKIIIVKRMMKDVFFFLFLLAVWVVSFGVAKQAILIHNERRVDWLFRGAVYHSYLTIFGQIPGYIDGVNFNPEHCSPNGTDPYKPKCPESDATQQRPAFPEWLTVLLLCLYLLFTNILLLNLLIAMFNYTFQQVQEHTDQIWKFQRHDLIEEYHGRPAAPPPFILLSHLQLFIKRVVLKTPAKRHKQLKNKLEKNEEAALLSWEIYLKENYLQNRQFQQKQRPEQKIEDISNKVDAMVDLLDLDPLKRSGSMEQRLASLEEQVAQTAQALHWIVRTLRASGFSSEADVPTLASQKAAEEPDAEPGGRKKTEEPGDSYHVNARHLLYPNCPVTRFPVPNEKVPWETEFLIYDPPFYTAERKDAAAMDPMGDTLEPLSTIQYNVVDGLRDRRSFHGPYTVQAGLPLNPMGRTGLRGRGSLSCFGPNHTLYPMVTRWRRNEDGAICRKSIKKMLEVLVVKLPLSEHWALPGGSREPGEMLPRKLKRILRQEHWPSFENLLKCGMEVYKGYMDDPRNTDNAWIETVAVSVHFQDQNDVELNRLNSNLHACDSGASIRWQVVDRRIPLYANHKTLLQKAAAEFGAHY
- assay remarks: Antagonist activity at human TRPM2 expressed in HEK293 cells assessed as inhibition of ADPR-induced maximum outward potassium current at 900 uM at +15 mV by whole-cell patch-clamp electrophysiology
- Assay type: cell-based
The source made the active and inactive calls. No cut-off for these calls is given here.
Select the correct class. Options are active, inactive and nothing else.

The examples below pair each entry with its known result.
[[record]]
compound = "Nc1ncnc2c1nc(Cl)n2[C@@H]1O[C@H](COP(=O)(O)O)[C@@H](O)[C@H]1O"
answer_label = "inactive"

[[record]]
compound = "Nc1ncnc2c1ncn2[C@@H]1O[C@H](COP(=O)(O)O)[C@@H](O)[C@H]1O [ADENOSINE PHOSPHATE]"
answer_label = "inactive"


Query: # fetch the recorded call for Nc1ncnc2c1ncn2[C@@H]1O[C@H](COP(=O)(O)OP(=O)(O)O)[C@@H](O)[C@H]1O here
Response: inactive

Query: In this assay, the call recorded for Nc1ncnc2c1nc(-c1ccccc1)n2[C@H]1C[C@H](O)[C@@H](COP(=O)(O)OP(=O)(O)OC[C@H]2OC(O)[C@H](O)[C@@H]2O)O1 (stereo not given in full) was what?
Response: active

Query: Can you look up the reported call for Nc1ncnc2c1ncn2[C@@H]1O[C@H](COP(=O)(O)OP(=O)(O)OP(=O)(O)OC[C@H]2OC(O)[C@H](O)[C@@H]2O)[C@@H](O)[C@H]1O (stereo not given in full) for me?
Response: inactive
